// data source = patent US10077261B2

IC50 values, listed per item
Molecular target: hFASN enzyme (full length) (Homo sapiens)
Construct: 10 μL hFASN enzyme (full length, 300 ng, purified in house); made in house
Sequence (P49327 whole entry): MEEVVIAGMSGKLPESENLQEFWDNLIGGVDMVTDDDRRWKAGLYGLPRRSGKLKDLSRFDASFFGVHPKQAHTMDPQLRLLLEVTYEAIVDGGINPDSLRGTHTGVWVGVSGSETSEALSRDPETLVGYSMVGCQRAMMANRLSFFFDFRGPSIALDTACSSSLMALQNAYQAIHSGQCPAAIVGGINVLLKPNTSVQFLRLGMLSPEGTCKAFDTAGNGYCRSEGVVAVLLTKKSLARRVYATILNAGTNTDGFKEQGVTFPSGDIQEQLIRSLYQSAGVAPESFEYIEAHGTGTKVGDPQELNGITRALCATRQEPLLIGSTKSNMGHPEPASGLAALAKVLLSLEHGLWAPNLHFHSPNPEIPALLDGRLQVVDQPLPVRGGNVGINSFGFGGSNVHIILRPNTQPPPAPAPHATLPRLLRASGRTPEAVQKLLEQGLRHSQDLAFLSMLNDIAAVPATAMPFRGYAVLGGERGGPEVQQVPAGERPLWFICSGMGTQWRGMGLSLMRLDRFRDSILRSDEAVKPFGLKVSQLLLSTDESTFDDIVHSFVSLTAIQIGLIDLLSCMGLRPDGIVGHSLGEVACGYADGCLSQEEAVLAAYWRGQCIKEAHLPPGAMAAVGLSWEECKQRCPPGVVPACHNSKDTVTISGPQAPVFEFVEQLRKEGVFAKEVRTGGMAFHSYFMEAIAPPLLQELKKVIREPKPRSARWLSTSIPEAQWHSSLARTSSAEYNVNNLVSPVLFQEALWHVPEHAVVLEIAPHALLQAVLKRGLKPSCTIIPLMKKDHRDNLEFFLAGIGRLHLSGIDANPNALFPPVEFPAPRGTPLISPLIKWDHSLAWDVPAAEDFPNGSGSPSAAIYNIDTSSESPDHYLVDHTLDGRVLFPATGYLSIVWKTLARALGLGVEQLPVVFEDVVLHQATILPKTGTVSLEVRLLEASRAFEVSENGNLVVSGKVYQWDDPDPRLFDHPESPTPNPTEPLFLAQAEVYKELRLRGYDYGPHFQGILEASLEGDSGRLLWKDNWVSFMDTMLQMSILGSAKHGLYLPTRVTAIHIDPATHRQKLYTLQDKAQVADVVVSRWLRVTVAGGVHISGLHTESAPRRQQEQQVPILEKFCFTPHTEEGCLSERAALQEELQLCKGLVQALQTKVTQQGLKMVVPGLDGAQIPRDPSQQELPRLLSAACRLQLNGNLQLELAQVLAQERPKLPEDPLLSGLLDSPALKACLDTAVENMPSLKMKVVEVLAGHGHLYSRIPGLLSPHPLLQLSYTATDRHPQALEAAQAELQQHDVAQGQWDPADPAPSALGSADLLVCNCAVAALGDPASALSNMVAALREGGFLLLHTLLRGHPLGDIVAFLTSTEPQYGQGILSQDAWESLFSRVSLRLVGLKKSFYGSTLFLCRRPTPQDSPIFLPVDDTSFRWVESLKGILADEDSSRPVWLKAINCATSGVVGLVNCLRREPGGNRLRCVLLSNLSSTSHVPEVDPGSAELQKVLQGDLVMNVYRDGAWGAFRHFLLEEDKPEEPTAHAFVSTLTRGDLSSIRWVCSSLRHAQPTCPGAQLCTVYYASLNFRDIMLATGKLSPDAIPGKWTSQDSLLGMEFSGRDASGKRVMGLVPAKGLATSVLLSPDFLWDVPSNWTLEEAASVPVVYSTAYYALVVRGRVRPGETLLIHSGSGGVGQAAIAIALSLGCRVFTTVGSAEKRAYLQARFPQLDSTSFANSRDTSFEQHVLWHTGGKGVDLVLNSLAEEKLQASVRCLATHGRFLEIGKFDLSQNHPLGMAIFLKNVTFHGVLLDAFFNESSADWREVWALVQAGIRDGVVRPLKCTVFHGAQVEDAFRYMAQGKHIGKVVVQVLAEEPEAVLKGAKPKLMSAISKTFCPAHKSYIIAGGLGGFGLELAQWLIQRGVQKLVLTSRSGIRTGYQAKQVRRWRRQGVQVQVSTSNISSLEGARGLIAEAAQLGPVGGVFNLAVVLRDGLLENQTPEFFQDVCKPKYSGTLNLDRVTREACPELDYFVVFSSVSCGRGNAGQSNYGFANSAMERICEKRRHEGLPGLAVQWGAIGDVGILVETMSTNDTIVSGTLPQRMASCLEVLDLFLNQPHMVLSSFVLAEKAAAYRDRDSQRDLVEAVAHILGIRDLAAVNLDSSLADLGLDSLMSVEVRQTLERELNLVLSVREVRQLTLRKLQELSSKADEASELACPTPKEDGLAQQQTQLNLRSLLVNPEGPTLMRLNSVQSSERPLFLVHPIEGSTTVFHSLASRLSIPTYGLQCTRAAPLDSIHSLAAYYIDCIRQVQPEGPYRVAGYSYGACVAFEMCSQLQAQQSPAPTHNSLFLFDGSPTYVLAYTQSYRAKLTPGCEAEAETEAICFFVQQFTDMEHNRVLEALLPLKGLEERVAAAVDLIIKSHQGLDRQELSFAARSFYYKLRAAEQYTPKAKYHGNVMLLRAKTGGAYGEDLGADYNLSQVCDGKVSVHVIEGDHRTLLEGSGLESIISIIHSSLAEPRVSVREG
Assay: Fatty Acid Synthase (FASN) inhibition scintillation proximity assay
Type: biochemical
Settings: read-out: Human FASN pIC50 (converted)

{"Compound": "Cn1cc(-c2ccc(C3=NC4(CC4)C(=O)N3CC3CCN(C(=O)C4CC4)CC3)cc2)cn1 [compound 9]", "Tested On": "hFASN enzyme (full length) (Homo sapiens)", "Units Label": "nM", "Result Operator": ">", "IC50": 10000}
{"Compound": "O=C1CCc2cc(-c3ccc(C4=NC5(CC5)C(=O)N4C[C@@H]4CCN(C(=O)C5CC5)C4)cc3)ccc2N1 [compound 512]", "Tested On": "hFASN enzyme (full length) (Homo sapiens)", "Units Label": "nM", "Result Operator": "=", "IC50": 676}
{"Compound": "CN(C)CC(=O)N1CCC2(CC1)N=C(c1ccc(-c3ccc4cnccc4c3)cc1)N(C[C@@H]1CCN(C(=O)C3CC3)C1)C2=O [compound 142]", "Tested On": "hFASN enzyme (full length) (Homo sapiens)", "Units Label": "nM", "Result Operator": "=", "IC50": 69.2}
{"Compound": "O=C(C1CC1)N1CC(CN2C(=O)C3(CC3)N=C2c2ccc(-c3ccc(-n4ccnc4)nc3)cc2)C1 [compound 509]", "Tested On": "hFASN enzyme (full length) (Homo sapiens)", "Units Label": "nM", "Result Operator": "=", "IC50": 2000}
{"Compound": "O=C(C1CC1)N1CC[C@@H](CN2C(=O)C3(CC3)N=C2c2ccc(-c3ccc4[nH]ccc4c3)nc2)C1 [compound 402]", "Tested On": "hFASN enzyme (full length) (Homo sapiens)", "Units Label": "nM", "Result Operator": "=", "IC50": 138}
{"Compound": "Cn1cc(-c2ccc(-c3ccc(C4=NC5(CCOC5)C(=O)N4CC4CN(S(C)(=O)=O)C4)cc3)cc2)cn1 (stereo not drawn) [compound 950]", "Tested On": "hFASN enzyme (full length) (Homo sapiens)", "Units Label": "nM", "Result Operator": ">", "IC50": 10000}
{"Compound": "Cn1cc(-c2ccc(C3=NC4(CC4)C(=O)N3CC3CN(C(=O)C4CC4)C3)cc2)cn1 [compound 42]", "Tested On": "hFASN enzyme (full length) (Homo sapiens)", "Units Label": "nM", "Result Operator": ">", "IC50": 10000}
{"Compound": "COc1ccc2cc(-c3ccc(C4=NC5(CC5)C(=O)N4CC4CN(C(=O)C5CC5)C4)c(F)c3)ccc2c1 [compound 351]", "Tested On": "hFASN enzyme (full length) (Homo sapiens)", "Units Label": "nM", "Result Operator": "=", "IC50": 74.1}
{"Compound": "NC(=O)c1cccc(-c2ccc(C3=NC4(CC4)C(=O)N3C[C@@H]3CCN(C(=O)C4CC4)C3)cc2)c1 [compound 494]", "Tested On": "hFASN enzyme (full length) (Homo sapiens)", "Units Label": "nM", "Result Operator": "=", "IC50": 219}
{"Compound": "Cn1ncc2cc(-c3ccc(C4=NC5(CC5)C(=O)N4CC4CN(C(=O)C5(O)CC5)C4)c(F)c3)ccc21 [compound 572]", "Tested On": "hFASN enzyme (full length) (Homo sapiens)", "Units Label": "nM", "Result Operator": "=", "IC50": 135}
{"Compound": "O=C(C1CC1)N1CC(CN2C(=O)C3(CC3)N=C2c2ccc(-c3ccc4[nH]ccc4c3)cc2)C1 [compound 40]", "Tested On": "hFASN enzyme (full length) (Homo sapiens)", "Units Label": "nM", "Result Operator": "=", "IC50": 18.6}
{"Compound": "O=C(C1CC1)N1CC(CN2C(=O)C3(CC3)N=C2c2ccc(-c3nc4cc(Cl)ccc4s3)cc2F)C1 [compound 643]", "Tested On": "hFASN enzyme (full length) (Homo sapiens)", "Units Label": "nM", "Result Operator": "=", "IC50": 380}
{"Compound": "CS(=O)(=O)N1CCC2(CC1)N=C(c1ccc(-c3ccc4occc4c3)cc1)N(C[C@@H]1CCN(C(=O)C3CC3)C1)C2=O [compound 746]", "Tested On": "hFASN enzyme (full length) (Homo sapiens)", "Units Label": "nM", "Result Operator": "=", "IC50": 275}
{"Compound": "Cc1cc(-c2cccc(NC(=O)C3CC3)c2)ccc1C1=NC2(CC2)C(=O)N1CC1CN(C(=O)C2CC2)C1 [compound 571]", "Tested On": "hFASN enzyme (full length) (Homo sapiens)", "Units Label": "nM", "Result Operator": "=", "IC50": 1380}
{"Compound": "COC(=O)N1CC2(C1)N=C(c1ccc(-c3ccc(-c4cnn(C)c4)cc3)cc1)N(C[C@@H]1CCN(C(=O)c3nccs3)C1)C2=O [compound 929]", "Tested On": "hFASN enzyme (full length) (Homo sapiens)", "Units Label": "nM", "Result Operator": ">", "IC50": 10000}
{"Compound": "COC(=O)N1CC2(C1)N=C(c1ccc(-c3ccc(-c4cnn(C)c4)cc3)cc1)N(C[C@@H]1CCN(S(C)(=O)=O)C1)C2=O [compound 891]", "Tested On": "hFASN enzyme (full length) (Homo sapiens)", "Units Label": "nM", "Result Operator": ">", "IC50": 10000}
{"Compound": "O=C(C1CC1)N1CCC[C@@H](CN2C(=O)C3(CC3)N=C2c2ccc(-c3ccc(-c4cccc(Cl)c4)cc3)cc2)C1 [compound 820]", "Tested On": "hFASN enzyme (full length) (Homo sapiens)", "Units Label": "nM", "Result Operator": ">", "IC50": 10000}
